Data provenance: ChEMBL document CHEMBL4613297

Reported IC50 values for the following molecules.
# tested_target: Human immunodeficiency virus type 1 reverse transcriptase (Human immunodeficiency virus 1, UniProt Q72547)
# assay_remarks: Inhibition of recombinant HIV-1 BH10 reverse transcriptase p51/p66 expressed in Escherichia coli preincubated for 10 mins followed by D38/25PGA template-primer addition and measured after 10 to 30 secs by denaturing PAGE based single nucleotide incorporation assay
# Design: species or system Human immunodeficiency virus type 1 BH10
Where a SMILES comes first, the peptide text is derived from it. Bridges are numbered along the chain shown (N, C = ends).

Request the reported IC50 associated with CC[C@H](C)[C@@H]1NC(=O)[C@@H](N)CSSC[C@@H](C(=O)O)NC(=O)[C@H](CCC(=O)O)NC(=O)[C@H](CC(N)=O)NC(=O)[C@H](CC(N)=O)NC1=O (H-CINNEC-OH; disulfide 1-6) 109 µM

Request the reported IC50 associated with CC[C@H](C)[C@@H]1NC(=O)[C@H](CCCNC(=N)N)NC(=O)[C@H](Cc2ccc(O)cc2)NC(=O)[C@H]2CCCN2C(=O)[C@@H]2CCCN2C(=O)[C@H](Cc2ccccc2)NC(=O)[C@H]([C@H](C)O)NC(=O)[C@H]([C@@H](C)CC)NC(=O)[C@@H]2CCCN2C(=O)[C@H](CC(N)=O)NC(=O)[C@H]([C@@H](C)CC)NC(=O)[C@@H](CO)NC(=O)[C@H](CC(N)=O)NC(=O)[C@@H](CCC(=O)O)NC(=O)[C@H]([C@H](C)O)NC(=O)[C@@H]2CCCN2C(=O)CNC1=O > 145 µM

Request the reported IC50 associated with CC[C@H](C)[C@@H]1NC(=O)[C@H](CO)NC(=O)[C@H](N)CSSC[C@@H](C(=O)O)NC(=O)[C@@H]2CCCN2C(=O)[C@H]([C@@H](C)O)NC(=O)[C@H](CCC(=O)O)NC(=O)[C@H](CC(N)=O)NC(=O)[C@H](CC(N)=O)NC1=O > 145 µM

Request the reported IC50 associated with CC[C@H](C)[C@@H]1NC(=O)CNC(=O)[C@@H]2CCCN2C(=O)[C@H]([C@@H](C)O)NC(=O)C(CCC(=O)O)NC(=O)[C@H](CC(N)=O)NC(=O)C(CC(N)=O)NC(=O)[C@@H]([C@@H](C)CC)NC(=O)[C@H](CO)NC(=O)[C@@H]2CCCN2C(=O)[C@H]([C@@H](C)CC)NC(=O)[C@@H](N)CSSC[C@@H](C(=O)O)NC1=O (stereo not given in full) > 145 µM

Request the reported IC50 associated with CC[C@H](C)[C@H](NC(=O)CNC(=O)[C@@H]1CCCN1C(=O)[C@@H](NC(=O)[C@H](CCC(=O)O)NC(=O)[C@H](CC(N)=O)NC(=O)[C@H](CC(N)=O)NC(=O)[C@@H](NC(=O)[C@H](CO)NC(=O)[C@@H]1CCCN1C(=O)[C@@H](NC(=O)[C@@H](NC(=O)[C@@H](N)Cc1ccccc1)[C@@H](C)O)[C@@H](C)CC)[C@@H](C)CC)C(C)O)C(=O)N[C@@H](CCCNC(=N)N)C(=O)N[C@@H](Cc1ccc(O)cc1)C(=O)O (single isomer, unassigned) > 145 µM

----------
# tested_target: Human immunodeficiency virus type 1 reverse transcriptase (Human immunodeficiency virus 1) (UniProt Q72547)
# assay_remarks: Inhibition of recombinant HIV-1 group M subtype B reverse transcriptase p51/p66 expressed in Escherichia coli M15 assessed as change in melting temperature at 100 uM incubated for 1 hr by sypro orange dye based differential scanning fluorimetric analysis
# details: HIV-1 M:B
quantity_kind: ΔTm (°C)
State just the number; it will be interpreted in °C.

Request the reported ΔTm associated with CC[C@H](C)[C@@H]1NC(=O)[C@H](CCCNC(=N)N)NC(=O)[C@H](Cc2ccc(O)cc2)NC(=O)[C@H]2CCCN2C(=O)[C@@H]2CCCN2C(=O)[C@H](Cc2ccccc2)NC(=O)[C@H]([C@H](C)O)NC(=O)[C@H]([C@@H](C)CC)NC(=O)[C@@H]2CCCN2C(=O)[C@H](CC(N)=O)NC(=O)[C@H]([C@@H](C)CC)NC(=O)[C@@H](CO)NC(=O)[C@H](CC(N)=O)NC(=O)[C@@H](CCC(=O)O)NC(=O)[C@H]([C@H](C)O)NC(=O)[C@@H]2CCCN2C(=O)CNC1=O -15
